Tested on: 171881-019-R-J1-PDC tumor spheroids, viability;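 also: spheroids exposed to compounds for 7 days; 100% = DMSO vehicle control viability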
Assay: Anticancer human tumor 171881-019-R-J1-PDC patient-derived invasive breast carcinoma cell line growth inhibition [GQUAD]
Settings: second compound 0.0316 µM; first compound 3.16 µM; hits give low values; spheroids with HUVEC and MSC
Below, each entry is listed alongside its reported viability, T/C.
Respond with the bare value in %.

Take a look at these entries with their results.
INSERT INTO assay_data (molecule, observed_result) VALUES
  ('O=C(c1cc(Cc2n[nH]c(=O)c3ccccc23)ccc1F)N1CCN(C(=O)C2CC2)CC1 + Cc1[nH]c2ccc(F)cc2c1-c1nc2c3cccnc3c3ncccc3c2[nH]1', 99.3),
  ('C=CC(=O)N1CCN(c2nc(=O)n(-c3c(C)ccnc3C(C)C)c3nc(-c4c(O)cccc4F)c(F)cc23)C(C)C1 (stereo not given) + Cc1cnc(CNC(=O)c2c(=O)c3ccc(N4CCCN(C)CC4)nc3n3c2sc2ccccc23)cn1', 87.2),
  ('C=CC(=O)N1CCN(c2nc(=O)n(-c3c(C)ccnc3C(C)C)c3nc(-c4c(O)cccc4F)c(F)cc23)C(C)C1 (stereo not given) + Cc1[nH]c2ccc(F)cc2c1-c1nc2c3cccnc3c3ncccc3c2[nH]1', 90),
  ('COc1ncnc(C2CC2)c1-c1ncc2cnn(Cc3ccc(-c4nc(C(F)(F)F)cn4C(C)C)cc3)c2n1 + Cc1[nH]c2ccc(F)cc2c1-c1nc2c3cccnc3c3ncccc3c2[nH]1', 90.5);

Proceed to the following item.
Give the value of viability, T/C reported for the following: C=CCn1c(=O)c2cnc(Nc3ccc(N4CCN(C)CC4)cc3)nc2n1-c1cccc(C(C)(C)O)n1 + Cc1cnc(CNC(=O)c2c(=O)c3ccc(N4CCCN(C)CC4)nc3n3c2sc2ccccc23)cn1
19.9
